Cited source for all entries: ChEMBL document CHEMBL3813675

Quick note: these are log10(Ki) numbers for system: Retinoic acid receptor RXR-alpha/Retinoic acid receptor beta (Homo sapiens)
Sequence (P10826 whole entry): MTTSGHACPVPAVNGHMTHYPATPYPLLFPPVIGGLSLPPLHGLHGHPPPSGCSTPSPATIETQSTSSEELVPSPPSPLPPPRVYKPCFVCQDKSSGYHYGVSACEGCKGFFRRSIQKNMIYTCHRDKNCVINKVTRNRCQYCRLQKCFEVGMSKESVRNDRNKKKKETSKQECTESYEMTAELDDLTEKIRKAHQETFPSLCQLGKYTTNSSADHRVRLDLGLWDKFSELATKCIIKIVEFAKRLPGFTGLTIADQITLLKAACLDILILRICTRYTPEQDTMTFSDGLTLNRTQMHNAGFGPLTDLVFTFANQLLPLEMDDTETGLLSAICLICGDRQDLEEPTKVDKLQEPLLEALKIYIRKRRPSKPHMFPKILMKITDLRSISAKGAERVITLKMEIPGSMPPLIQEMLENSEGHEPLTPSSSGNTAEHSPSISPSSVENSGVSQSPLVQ
Sequence (P19793 whole entry, further chain): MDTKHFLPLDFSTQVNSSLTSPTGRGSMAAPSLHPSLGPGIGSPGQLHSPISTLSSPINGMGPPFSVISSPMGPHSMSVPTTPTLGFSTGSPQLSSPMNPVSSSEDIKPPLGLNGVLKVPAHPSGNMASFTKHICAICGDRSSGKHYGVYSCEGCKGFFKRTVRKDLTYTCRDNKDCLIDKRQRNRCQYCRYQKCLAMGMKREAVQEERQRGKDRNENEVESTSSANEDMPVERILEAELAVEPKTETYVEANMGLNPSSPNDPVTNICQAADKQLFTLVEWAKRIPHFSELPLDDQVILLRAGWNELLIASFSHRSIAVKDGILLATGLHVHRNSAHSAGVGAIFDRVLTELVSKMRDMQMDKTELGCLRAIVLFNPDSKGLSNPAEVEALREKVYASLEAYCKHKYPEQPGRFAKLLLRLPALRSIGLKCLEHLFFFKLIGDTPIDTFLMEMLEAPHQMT
EXPERIMENTAL_ENDPOINT: log10(Ki) (log10 of the value in nM)

| SMILES_CODE | MEASURED_TARGET | log10(Ki) |
| --- | --- | --- |
| CC1(C)CCC(C)(C)c2cc(-c3cc(-c4ccc(C(=O)O)cc4)nn3-c3ccc(S(C)(=O)=O)cc3)ccc21 | Retinoic acid receptor RXR-alpha/Retinoic acid receptor beta (Homo sapiens) | 0.72 |
| Cc1cc(-c2cc(-c3ccc(C(=O)O)cc3)nn2-c2ccc(S(C)(=O)=O)cc2)cc(C(C)(C)C)c1 | Retinoic acid receptor RXR-alpha/Retinoic acid receptor beta (Homo sapiens) | 1.00 |
| CC(C)c1cc(-c2cc(-c3ccc(C(=O)O)cc3)nn2-c2ccc(S(C)(=O)=O)cc2)cc(C(C)(C)C)c1 | Retinoic acid receptor RXR-alpha/Retinoic acid receptor beta (Homo sapiens) | 2.12 |
| CC(C)(C)c1cccc(-c2cc(-c3ccc(C(=O)O)cc3)nn2-c2ccc(S(C)(=O)=O)cc2)c1 | Retinoic acid receptor RXR-alpha/Retinoic acid receptor beta (Homo sapiens) | 0.63 |
| CC(C)(C)c1cc(-c2cc(-c3ccc(C(=O)O)cc3)nn2-c2ccc(S(C)(=O)=O)cc2)cc(C(C)(C)C)c1 | Retinoic acid receptor RXR-alpha/Retinoic acid receptor beta (Homo sapiens) | 3.00 |
